Recorded phosphorylation enrichment for the following sequences
# test.target: EPHB2 (UniProt P29323)
# Sequence (P29323 whole entry, looked up): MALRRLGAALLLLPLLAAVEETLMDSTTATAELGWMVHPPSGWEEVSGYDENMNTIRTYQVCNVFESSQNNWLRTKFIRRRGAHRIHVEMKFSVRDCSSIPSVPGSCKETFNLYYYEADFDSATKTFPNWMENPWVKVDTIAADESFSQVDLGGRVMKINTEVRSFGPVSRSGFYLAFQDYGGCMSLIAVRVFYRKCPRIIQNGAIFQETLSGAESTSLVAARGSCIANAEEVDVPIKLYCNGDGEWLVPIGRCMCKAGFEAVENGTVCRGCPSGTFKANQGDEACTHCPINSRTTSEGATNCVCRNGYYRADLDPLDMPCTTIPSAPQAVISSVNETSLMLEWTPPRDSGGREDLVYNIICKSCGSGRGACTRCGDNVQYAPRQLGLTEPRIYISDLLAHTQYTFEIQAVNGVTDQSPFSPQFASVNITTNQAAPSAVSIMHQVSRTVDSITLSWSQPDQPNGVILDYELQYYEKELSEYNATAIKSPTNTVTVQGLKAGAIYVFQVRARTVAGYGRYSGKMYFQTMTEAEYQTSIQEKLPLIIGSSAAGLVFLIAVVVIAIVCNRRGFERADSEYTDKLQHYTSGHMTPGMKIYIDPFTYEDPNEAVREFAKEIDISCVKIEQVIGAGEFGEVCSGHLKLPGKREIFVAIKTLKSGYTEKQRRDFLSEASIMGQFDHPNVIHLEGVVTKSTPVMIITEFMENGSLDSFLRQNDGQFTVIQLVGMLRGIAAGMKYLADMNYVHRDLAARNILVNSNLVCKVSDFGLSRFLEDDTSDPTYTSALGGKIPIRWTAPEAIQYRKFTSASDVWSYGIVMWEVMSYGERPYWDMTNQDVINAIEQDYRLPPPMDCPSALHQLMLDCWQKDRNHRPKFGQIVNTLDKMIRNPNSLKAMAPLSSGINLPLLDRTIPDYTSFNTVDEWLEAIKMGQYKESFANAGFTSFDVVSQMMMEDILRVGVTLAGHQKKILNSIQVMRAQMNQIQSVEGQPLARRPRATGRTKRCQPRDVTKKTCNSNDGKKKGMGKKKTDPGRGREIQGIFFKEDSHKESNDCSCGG
# procedure.details: phosphorylation enrichment, bacterial display (enrichment ratio); higher = better substrate or ligand; peptides without Tyr show the background;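 further: 11-residue human phosphosite peptides and single-mutation variants displayed on the E. coli surface, counted by deep sequencing, each peptide's frequency after selection divided by its frequency in the unselected input library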;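 further: frequency after pTyr selection over input frequency; kinase dosed for 20-30% of maximal phosphorylation in three min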
Could you keep your reply to the number by itself?

{"ordered.residues": "KIKGWYEKCEP [KRT26_Y119]", "test.target": "EPHB2 (UniProt P29323)", "phosphorylation enrichment": 0.573}
{"ordered.residues": "INITIYGKTFC [EFHC1_Y177_R182C]", "test.target": "EPHB2 (UniProt P29323)", "phosphorylation enrichment": 0.684}
{"ordered.residues": "FTYDPYSEEEP [IL2RB_Y387_D391E]", "test.target": "EPHB2 (UniProt P29323)", "phosphorylation enrichment": 0.572}

Request: phosphorylation enrichment, test system EPHB2 (UniProt P29323), entry YTHSDYQYGQR [PKP2_Y166_S169G]
0.416

Request: phosphorylation enrichment, test system EPHB2 (UniProt P29323), entry YCRIMYDIFPF [INTS13_Y67]
5.07
